Test system: A549 lung epithelial cells
ASSAY EXPLANATION: A549 cell cytotoxicity (MTT)
ASSAY SETUP: read-out: Cytotoxicity IC50 A549 cells; 48 h incubation, MTT; called CC50 in methods
pIC50: −log10 of the molar value.
Overview of recorded pIC50 for various molecules
PROPERTY MEASURED: pIC50

MOLECULE	RESULT
O.O.O.O.O.O=C([O-])c1ccccc1C(=O)[O-].[Mn+2].c1cnc2c(c1)ccc1cccnc12.c1cnc2c(c1)ccc1cccnc12 [compound 6, [Mn(ph)(phen)2(H2O)]·4H2O]	3.41
O.O.O=C([O-])c1ccccc1C(=O)[O-].[Mn+2].c1cnc2c(c1)ccc1cccnc12 [compound 5, [Mn(ph)(phen)(H2O)2]]	3.27
[Cl-].[Cl-].[Mn+2] [MnCl2·2H2O, reference compound]	3.02
O.O.O.O.O.O=C([O-])c1ccc(C(=O)[O-])cc1.[Mn+2].c1cnc2c(c1)ccc1cccnc12.c1cnc2c(c1)ccc1cccnc12 [compound 9, [Mn(tereph)(phen)2]·5H2O]	3.42
O.O.O.O.O.O.O.O.O.O.O.O.O.O.O.O.O=C([O-])c1cccc(C(=O)[O-])c1.O=C([O-])c1cccc(C(=O)[O-])c1.[Mn+2].[Mn+2].c1cnc2c(c1)ccc1cccnc12.c1cnc2c(c1)ccc1cccnc12.c1cnc2c(c1)ccc1cccnc12.c1cnc2c(c1)ccc1cccnc12.c1cnc2c(c1)ccc1cccnc12 [compound 8, {[Mn(phen)2(H2O)2]}2(isoph)2(phen)·12H2O]	3.81
O.O.O.O.O=C([O-])c1cccc(C(=O)[O-])c1.O=C([O-])c1cccc(C(=O)[O-])c1.[Mn+2].[Mn+2].c1cnc2c(c1)ccc1cccnc12.c1cnc2c(c1)ccc1cccnc12.c1cnc2c(c1)ccc1cccnc12 [compound 7, [Mn2(isoph)2(phen)3]·4H2O]	3.61
